Biological target: NE transporters [h(NET)] (Homo sapiens, UniProt P23975)
Construct: expressed in transfected cells; host or cells: HEK-293
Sequence (P23975 whole entry): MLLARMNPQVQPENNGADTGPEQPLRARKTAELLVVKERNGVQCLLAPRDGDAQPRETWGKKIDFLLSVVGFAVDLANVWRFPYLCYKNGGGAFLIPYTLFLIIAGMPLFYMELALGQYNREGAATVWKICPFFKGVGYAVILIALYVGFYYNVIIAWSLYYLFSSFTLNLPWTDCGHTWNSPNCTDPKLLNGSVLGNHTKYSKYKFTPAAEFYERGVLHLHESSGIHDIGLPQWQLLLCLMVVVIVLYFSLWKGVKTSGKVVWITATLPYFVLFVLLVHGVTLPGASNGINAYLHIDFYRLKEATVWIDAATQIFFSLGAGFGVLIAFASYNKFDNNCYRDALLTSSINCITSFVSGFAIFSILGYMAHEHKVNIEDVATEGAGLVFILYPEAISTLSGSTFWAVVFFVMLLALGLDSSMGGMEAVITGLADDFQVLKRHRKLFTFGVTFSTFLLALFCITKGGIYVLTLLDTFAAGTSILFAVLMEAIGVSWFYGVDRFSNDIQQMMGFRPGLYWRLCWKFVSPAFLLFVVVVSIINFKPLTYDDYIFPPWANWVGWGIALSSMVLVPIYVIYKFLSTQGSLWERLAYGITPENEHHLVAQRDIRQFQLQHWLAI
Test: Inhibition of [3H]norepinephrine uptake into HEK293 cells stably expressing hNET
Type: cell-based
Endpoint: IC50

[[record]]
molecule = "CC1NC(C)(C)COC1(O)c1ccc(Cl)c(Cl)c1 (racemic)"
result = "114 nM"


---

Examples of molecules with documented IC50 follow.
Target: 5HT transporters [(h)SERT] (Homo sapiens)
Construct: expressed in transfected cells; host or cells: HEK-293
Sequence (P31645 whole entry): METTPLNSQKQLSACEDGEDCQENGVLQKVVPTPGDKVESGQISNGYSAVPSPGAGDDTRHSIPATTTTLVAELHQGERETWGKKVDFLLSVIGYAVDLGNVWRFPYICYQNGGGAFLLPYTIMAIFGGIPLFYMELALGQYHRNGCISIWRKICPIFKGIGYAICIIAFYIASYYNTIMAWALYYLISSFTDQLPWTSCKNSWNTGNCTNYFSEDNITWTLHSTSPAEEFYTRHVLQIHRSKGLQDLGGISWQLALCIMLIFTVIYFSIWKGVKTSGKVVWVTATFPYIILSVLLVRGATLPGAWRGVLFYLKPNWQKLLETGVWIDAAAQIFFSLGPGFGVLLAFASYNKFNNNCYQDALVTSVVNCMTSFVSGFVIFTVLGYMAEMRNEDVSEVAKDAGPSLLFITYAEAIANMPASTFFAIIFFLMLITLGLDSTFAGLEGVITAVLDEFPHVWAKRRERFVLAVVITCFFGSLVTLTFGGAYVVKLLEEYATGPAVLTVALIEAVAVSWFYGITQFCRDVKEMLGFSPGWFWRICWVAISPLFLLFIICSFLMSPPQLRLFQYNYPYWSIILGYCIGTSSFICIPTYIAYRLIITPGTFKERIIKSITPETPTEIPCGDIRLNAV
Assay: Inhibition of [3H]serotonin uptake into HEK293 cells stably expressing hSERT
Type: cell-based
Conditions: HEK293-hSERT; mean ± standard error of three independent experiments; read-out: monoamine uptake inhibition IC50 [3H]5HT
Endpoint: IC50

[[record]]
molecule = "C[C@@H]1NC(C)(C)CO[C@@]1(O)c1ccccc1"
target_entity = "5HT transporters [(h)SERT] (Homo sapiens)"
result = "> 10 µM"

[[record]]
molecule = "Cc1ccc([C@]2(O)OCC(C)(C)N[C@H]2C)cc1"
target_entity = "5HT transporters [(h)SERT] (Homo sapiens)"
result = "> 10 µM"

[[record]]
molecule = "CC1NC(C)(C)COC1(O)c1ccccn1 (racemic)"
target_entity = "5HT transporters [(h)SERT] (Homo sapiens)"
result = "> 10 µM"

[[record]]
molecule = "C[C@@H]1N(C)C(C)(C)CO[C@@]1(O)c1ccc(Cl)cc1"
target_entity = "5HT transporters [(h)SERT] (Homo sapiens)"
result = "6.48 µM"

[[record]]
molecule = "C[C@@H]1NC(C)(C)CO[C@@]1(O)c1cccc([N+](=O)[O-])c1"
target_entity = "5HT transporters [(h)SERT] (Homo sapiens)"
result = "> 10 µM"

[[record]]
molecule = "COc1cccc([C@]2(O)OCC(C)(C)N[C@H]2C)c1"
target_entity = "5HT transporters [(h)SERT] (Homo sapiens)"
result = "> 10 µM"

[[record]]
molecule = "C[C@@H]1NC(C)(C)CO[C@@]1(O)c1cc(F)cc(F)c1"
target_entity = "5HT transporters [(h)SERT] (Homo sapiens)"
result = "> 10 µM"

[[record]]
molecule = "Cc1cccc([C@]2(O)OCC(C)(C)N[C@H]2C)c1"
target_entity = "5HT transporters [(h)SERT] (Homo sapiens)"
result = "> 10 µM"

[[record]]
molecule = "C[C@@H]1NC(C)(C)CO[C@@]1(O)c1ccc(F)c(F)c1"
target_entity = "5HT transporters [(h)SERT] (Homo sapiens)"
result = "> 10 µM"

[[record]]
molecule = "C[C@@H]1N(C)C(C)(C)CO[C@@]1(O)c1cccc(Cl)c1"
target_entity = "5HT transporters [(h)SERT] (Homo sapiens)"
result = "> 10 µM"

[[record]]
molecule = "CC1NC(C)(C)COC1(O)c1cc(Cl)cc(Cl)c1 (racemic)"
target_entity = "5HT transporters [(h)SERT] (Homo sapiens)"
result = "> 10 µM"

[[record]]
molecule = "C[C@@H]1NC(C)(C)CO[C@@]1(O)c1ccc(F)cc1"
target_entity = "5HT transporters [(h)SERT] (Homo sapiens)"
result = "> 10 µM"

[[record]]
molecule = "C[C@@H]1NC(C)(C)CO[C@@]1(O)c1ccc(Cl)cc1"
target_entity = "5HT transporters [(h)SERT] (Homo sapiens)"
result = "4.6 µM"


---

Molecular target: muscle-type nAChR (α1β1γδ- or α1*-nAChR) (Homo sapiens, UniProt P02708+P07510+P11230+Q07001)
Construct: Cells of the TE671/RD line naturally expresses muscle-type nAChR; endogenous in cells; host or cells: TE671/RD cells
Sequence (P02708 21-457): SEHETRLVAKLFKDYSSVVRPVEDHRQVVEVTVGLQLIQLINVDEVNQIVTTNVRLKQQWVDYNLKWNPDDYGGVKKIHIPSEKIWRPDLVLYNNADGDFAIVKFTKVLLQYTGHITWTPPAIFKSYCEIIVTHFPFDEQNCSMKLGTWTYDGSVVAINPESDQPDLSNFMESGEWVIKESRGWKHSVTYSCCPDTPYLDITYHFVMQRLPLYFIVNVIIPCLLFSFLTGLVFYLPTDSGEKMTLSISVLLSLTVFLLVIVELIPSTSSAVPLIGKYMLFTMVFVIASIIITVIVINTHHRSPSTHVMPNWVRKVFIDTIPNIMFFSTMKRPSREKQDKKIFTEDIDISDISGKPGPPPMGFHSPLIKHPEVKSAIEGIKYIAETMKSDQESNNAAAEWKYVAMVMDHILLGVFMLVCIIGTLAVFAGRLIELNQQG
Sequence (P11230 24-501): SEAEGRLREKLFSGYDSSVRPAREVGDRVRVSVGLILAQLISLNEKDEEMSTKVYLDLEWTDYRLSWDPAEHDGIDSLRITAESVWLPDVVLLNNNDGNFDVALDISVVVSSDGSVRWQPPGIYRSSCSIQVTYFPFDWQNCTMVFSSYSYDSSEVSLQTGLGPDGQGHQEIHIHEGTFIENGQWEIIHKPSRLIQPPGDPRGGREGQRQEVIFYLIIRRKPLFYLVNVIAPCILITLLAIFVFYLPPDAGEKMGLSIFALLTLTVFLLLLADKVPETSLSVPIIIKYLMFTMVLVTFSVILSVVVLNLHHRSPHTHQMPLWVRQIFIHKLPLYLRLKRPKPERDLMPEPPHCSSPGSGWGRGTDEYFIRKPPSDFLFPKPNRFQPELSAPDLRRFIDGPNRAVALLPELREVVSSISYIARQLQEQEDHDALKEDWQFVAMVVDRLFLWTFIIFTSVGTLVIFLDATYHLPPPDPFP
Sequence (P07510 23-517): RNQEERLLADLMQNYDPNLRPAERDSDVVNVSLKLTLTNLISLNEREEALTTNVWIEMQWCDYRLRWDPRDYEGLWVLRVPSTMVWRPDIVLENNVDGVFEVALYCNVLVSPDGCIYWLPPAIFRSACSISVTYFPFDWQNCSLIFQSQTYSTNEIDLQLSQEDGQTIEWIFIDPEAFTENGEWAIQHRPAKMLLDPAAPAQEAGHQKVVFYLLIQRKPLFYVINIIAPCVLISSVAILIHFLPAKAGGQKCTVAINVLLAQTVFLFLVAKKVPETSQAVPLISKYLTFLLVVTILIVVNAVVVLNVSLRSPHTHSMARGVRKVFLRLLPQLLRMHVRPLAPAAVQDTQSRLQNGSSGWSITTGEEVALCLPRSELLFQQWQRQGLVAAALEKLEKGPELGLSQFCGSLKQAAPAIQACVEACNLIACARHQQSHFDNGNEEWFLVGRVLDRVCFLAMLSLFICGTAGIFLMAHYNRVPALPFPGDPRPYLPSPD
Sequence (Q07001 22-517): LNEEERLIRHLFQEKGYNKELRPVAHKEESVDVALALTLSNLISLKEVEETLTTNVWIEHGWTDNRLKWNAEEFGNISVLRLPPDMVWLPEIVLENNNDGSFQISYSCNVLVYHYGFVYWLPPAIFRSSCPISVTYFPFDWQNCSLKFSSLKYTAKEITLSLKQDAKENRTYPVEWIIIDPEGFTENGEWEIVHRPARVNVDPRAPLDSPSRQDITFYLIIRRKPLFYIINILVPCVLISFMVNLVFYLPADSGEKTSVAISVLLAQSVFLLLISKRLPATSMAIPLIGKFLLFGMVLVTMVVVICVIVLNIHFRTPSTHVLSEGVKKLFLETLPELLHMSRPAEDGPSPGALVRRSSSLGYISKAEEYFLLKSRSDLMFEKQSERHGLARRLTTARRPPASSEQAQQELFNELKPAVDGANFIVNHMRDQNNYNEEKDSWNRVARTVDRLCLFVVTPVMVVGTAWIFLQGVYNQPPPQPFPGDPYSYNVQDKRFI
Experiment: 86Rb+ efflux nAChR functional assay, TE671/RD cells
Format: cell-based
Details: nAChR inhibition IC50 α1*β1, EC80-EC90 carbamylcholine, parentheses = S.E.M. as multiplication/division factor
Endpoint: IC50

[[record]]
compound = "C[C@@H]1N(C)C(C)(C)CO[C@@]1(O)c1cccc(Cl)c1"
result = "> 33 µM"

[[record]]
compound = "C[C@@H]1NC(C)(C)CO[C@@]1(O)c1ccc(-c2ccccc2)cc1"
result = "5.9 to 19 µM"

[[record]]
compound = "C[C@@H]1NC(C)(C)CO[C@@]1(O)c1cccc(Br)c1"
result = "5.9 to 19 µM"

[[record]]
compound = "Cc1cccc([C@]2(O)OCC(C)(C)N[C@H]2C)c1"
result = "> 33 µM"

[[record]]
compound = "CC1NC(C)(C)COC1(O)c1cccnc1 (racemic)"
result = "> 100 µM"

[[record]]
compound = "CC1NC(C)(C)COC1(O)c1ccc(Cl)c(Cl)c1 (racemic)"
result = "7.2 µM"

[[record]]
compound = "CC1NC(C)(C)COC1(O)c1ccccn1 (racemic)"
result = "> 100 µM"

[[record]]
compound = "CC1NC(C)(C)COC1(O)c1cc(Cl)cc(Cl)c1 (racemic)"
result = "7.2 µM"

[[record]]
compound = "C[C@@H]1NC(C)(C)CO[C@@]1(O)c1ccccc1"
result = "> 100 µM"

[[record]]
compound = "C[C@@H]1N(C)C(C)(C)CO[C@@]1(O)c1ccc(Cl)cc1"
result = "> 33 µM"

[[record]]
compound = "C[C@@H]1NC(C)(C)CO[C@@]1(O)c1cccc(F)c1"
result = "> 100 µM"


---

Examples of compounds with documented pIC50 follow.
Target: NE transporters [h(NET)] (Homo sapiens)
Construct: expressed in transfected cells; host or cells: HEK-293
Assay: Inhibition of [3H]norepinephrine uptake into HEK293 cells stably expressing hNET
Assay type: cell-based
Details: HEK293-hNET; mean ± standard error of three independent experiments; read-out: monoamine uptake inhibition IC50 [3H]NE
pIC50: −log10 of the molar value.
Endpoint: pIC50

[[record]]
compound = "C[C@@H]1NC(C)(C)CO[C@@]1(O)c1cccc([N+](=O)[O-])c1"
endpoint = "pIC50"
inequality_sign = "="
numeric_readout = 5.92

[[record]]
compound = "C[C@@H]1NC(C)(C)CO[C@@]1(O)c1ccc2ccccc2c1"
endpoint = "pIC50"
inequality_sign = "="
numeric_readout = 5.80

[[record]]
compound = "C[C@@H]1NC(C)(C)CO[C@@]1(O)c1ccc(Cl)cc1"
endpoint = "pIC50"
inequality_sign = "="
numeric_readout = 6.08

[[record]]
compound = "C[C@@H]1NC(C)(C)CO[C@@]1(O)c1ccc(-c2ccccc2)cc1"
endpoint = "pIC50"
inequality_sign = "="
numeric_readout = 4.99

[[record]]
compound = "C[C@@H]1NC(C)(C)CO[C@@]1(O)c1cccc2ccccc12"
endpoint = "pIC50"
inequality_sign = "="
numeric_readout = 6.39

[[record]]
compound = "C[C@@H]1NC(C)(C)CO[C@@]1(O)c1ccc(F)c(F)c1"
endpoint = "pIC50"
inequality_sign = "="
numeric_readout = 6.13

[[record]]
compound = "C[C@@H]1NC(C)(C)CO[C@@]1(O)c1ccc(F)cc1"
endpoint = "pIC50"
inequality_sign = "="
numeric_readout = 5.42

[[record]]
compound = "C[C@@H]1NC(C)(C)CO[C@@]1(O)c1ccccc1"
endpoint = "pIC50"
inequality_sign = "="
numeric_readout = 6.26

[[record]]
compound = "C[C@@H]1NC(C)(C)CO[C@@]1(O)c1cccc(Br)c1"
endpoint = "pIC50"
inequality_sign = "="
numeric_readout = 6.04

[[record]]
compound = "C[C@@H]1N(C)C(C)(C)CO[C@@]1(O)c1cccc(Cl)c1"
endpoint = "pIC50"
inequality_sign = "="
numeric_readout = 6.38

[[record]]
compound = "CC1NC(C)(C)COC1(O)c1ccccn1 (racemic)"
endpoint = "pIC50"
inequality_sign = "="
numeric_readout = 5.10

[[record]]
compound = "CC1NC(C)(C)COC1(O)c1cccnc1 (racemic)"
endpoint = "pIC50"
inequality_sign = "<"
numeric_readout = 5.00

[[record]]
compound = "C[C@@H]1NC(C)(C)CO[C@@]1(O)c1cccc(F)c1"
endpoint = "pIC50"
inequality_sign = "="
numeric_readout = 6.13

[[record]]
compound = "Cc1cccc([C@]2(O)OCC(C)(C)N[C@H]2C)c1"
endpoint = "pIC50"
inequality_sign = "="
numeric_readout = 5.95

[[record]]
compound = "CC[C@@H]1NC(C)(C)CO[C@@]1(O)c1cccc(Cl)c1"
endpoint = "pIC50"
inequality_sign = "="
numeric_readout = 7.37

[[record]]
compound = "COc1cccc([C@]2(O)OCC(C)(C)N[C@H]2C)c1"
endpoint = "pIC50"
inequality_sign = "="
numeric_readout = 5.52

[[record]]
compound = "COc1ccc([C@]2(O)OCC(C)(C)N[C@H]2C)cc1"
endpoint = "pIC50"
inequality_sign = "<"
numeric_readout = 5.00

[[record]]
compound = "Cc1ccc([C@]2(O)OCC(C)(C)N[C@H]2C)cc1"
endpoint = "pIC50"
inequality_sign = "="
numeric_readout = 5.77

[[record]]
compound = "CC1NC(C)(C)COC1(O)c1cc(Cl)cc(Cl)c1 (racemic)"
endpoint = "pIC50"
inequality_sign = "="
numeric_readout = 5.61

[[record]]
compound = "C[C@@H]1NC(C)(C)CO[C@@]1(O)c1cc(F)cc(F)c1"
endpoint = "pIC50"
inequality_sign = "="
numeric_readout = 6.82

[[record]]
compound = "C[C@@H]1N(C)C(C)(C)CO[C@@]1(O)c1ccc(Cl)cc1"
endpoint = "pIC50"
inequality_sign = "="
numeric_readout = 6.28


Recorded values, source patent US8906908B2.
